# SYSTEM UNDER TEST: GRK2 (Homo sapiens, UniProt P25098, S670A)
# Construct: made in house
# Sequence (P25098 whole entry S670A, species assumed): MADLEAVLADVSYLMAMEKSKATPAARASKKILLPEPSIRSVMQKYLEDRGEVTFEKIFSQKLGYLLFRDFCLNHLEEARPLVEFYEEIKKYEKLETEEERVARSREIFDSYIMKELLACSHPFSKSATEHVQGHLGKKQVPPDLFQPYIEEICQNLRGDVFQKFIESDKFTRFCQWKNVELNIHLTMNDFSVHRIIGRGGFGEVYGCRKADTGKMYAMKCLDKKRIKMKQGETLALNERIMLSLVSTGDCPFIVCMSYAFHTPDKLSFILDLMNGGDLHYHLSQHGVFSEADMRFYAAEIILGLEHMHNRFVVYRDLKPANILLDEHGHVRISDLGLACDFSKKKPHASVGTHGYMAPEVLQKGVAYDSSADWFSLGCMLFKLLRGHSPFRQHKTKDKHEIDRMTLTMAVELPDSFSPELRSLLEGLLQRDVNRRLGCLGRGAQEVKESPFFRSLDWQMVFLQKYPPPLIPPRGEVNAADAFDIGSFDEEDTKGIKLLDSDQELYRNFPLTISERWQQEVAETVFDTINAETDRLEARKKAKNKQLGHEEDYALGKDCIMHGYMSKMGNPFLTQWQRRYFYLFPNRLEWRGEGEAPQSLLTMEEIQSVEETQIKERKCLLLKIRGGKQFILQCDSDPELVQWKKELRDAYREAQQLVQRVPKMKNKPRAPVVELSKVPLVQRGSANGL
# ASSAY REMARKS: DSF retest (confirmation), GRK2
# Type: binding
# EXPERIMENTAL PARAMETERS: 0.2 mg mL^–1 kinase
Could you mark each record satisfied if its GRK2 Tm falls strictly under 40 °C, and not satisfied if it equals or exceeds it?

Illustrative cases are given below, each with its answer.
[[record]]
compound = "CC1=C(C(=O)Nc2ccc3[nH]ncc3c2)C(c2ccc(F)cc2)NC(c2ccc(C(F)(F)F)nc2)=N1 (centres unmarked) [GSK317354A]"
class_name = "not satisfied"

[[record]]
compound = "CN(c1ccc(NC(=O)Nc2ccc(OC(F)(F)F)cc2)cc1)c1ccnc(Nc2cccc(S(N)(=O)=O)c2)n1 [GW806742X]"
class_name = "satisfied"

[[record]]
compound = "CC1=C(C(=O)Nc2ccc3[nH]ncc3c2)C(c2ccc3ccccc3c2)CC(=O)N1 (centres unmarked) [GSK270822A]"
class_name = "not satisfied"

[[record]]
compound = "CNC(=O)c1ncccc1Nc1nc(Nc2cc3c(cc2OC)CCCN3C(=O)CN(C)C)nc2[nH]ccc12 [GSK2220400A]"
class_name = "satisfied"

[[record]]
compound = "CC1=C(C(=O)Nc2cc(Cl)c3[nH]ncc3c2)C(c2ccc(C(F)(F)F)cc2)CC(=O)N1 (centres unmarked) [GSK466317A]"
class_name = "not satisfied"

[[record]]
compound = "CCCN1CCC(Oc2cc(Nc3nc(Nc4cccc(F)c4C(N)=O)c4cc[nH]c4n3)c(OC)cc2Cl)CC1 [GSK1713088A]"
class_name = "not satisfied"


Next up:
Query string: API: query returns whether the compound falls strictly under 40 °C in GRK2 Tm. Query: CCCN1CCC(c2ccc(Nc3nc(Nc4cc(F)ccc4C(N)=O)c4cc[nH]c4n3)c(OC)c2)CC1 [GSK1326255A]
Result string: not satisfied
